# test_summary: Displacement of [3H]DTG from sigma 2 receptor in rat PC12 cells after 2 hrs by liquid scintillation counting
# Format: cell-based
# condition_notes: pc-12
parameter: pKi
Quick note: pKi values are minus log10 of concentrations in mol/L.

Worked set:
[
  {
    "smiles_entry": "COc1ccc(CCCN2CCN(Cc3cc4ccccc4o3)CC2)cc1",
    "readout_number": 6.86
  },
  {
    "smiles_entry": "COc1cccc(CCCN2CCN(Cc3cc4ccccc4o3)CC2)c1",
    "readout_number": 7.40
  },
  {
    "smiles_entry": "COc1ccc(CCCCN2CCN(Cc3cc4ccccc4o3)CC2)cc1",
    "readout_number": 7.06
  },
  {
    "smiles_entry": "COc1ccccc1CCN1CCN(Cc2cc3ccccc3o2)CC1",
    "readout_number": 7.09
  },
  {
    "smiles_entry": "c1ccc(CCCN2CCN(Cc3cc4ccccc4o3)CC2)cc1",
    "readout_number": 7.74
  }
]

The molecule listed as `c1ccc(CCCCN2CCN(Cc3cc4ccccc4o3)CC2)cc1` has a reported pKi of 7.74

---

# target_under_test: UniProtKB P14416
# Sequence (P14416 whole entry): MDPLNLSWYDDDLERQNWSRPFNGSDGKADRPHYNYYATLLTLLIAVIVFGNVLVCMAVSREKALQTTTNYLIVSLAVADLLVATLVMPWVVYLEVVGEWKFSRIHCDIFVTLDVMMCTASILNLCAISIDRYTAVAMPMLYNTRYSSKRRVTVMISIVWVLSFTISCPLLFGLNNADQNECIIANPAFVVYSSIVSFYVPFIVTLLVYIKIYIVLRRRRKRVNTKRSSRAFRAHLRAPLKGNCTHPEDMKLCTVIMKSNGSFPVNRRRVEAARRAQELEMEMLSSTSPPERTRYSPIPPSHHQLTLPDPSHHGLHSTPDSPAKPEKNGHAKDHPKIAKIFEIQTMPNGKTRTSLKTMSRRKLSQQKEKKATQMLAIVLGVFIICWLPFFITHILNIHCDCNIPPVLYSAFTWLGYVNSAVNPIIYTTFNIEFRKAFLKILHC
# test_summary: Displacement of [3H]N-methylspiperone from D2 after 1.5 hrs by liquid scintillation counting
parameter: pKi
By convention, pKi is the negative base-10 log of a molar concentration.

[
  {
    "smiles_entry": "COc1cccc(CCCN2CCN(Cc3cc4ccccc4o3)CC2)c1",
    "target_under_test": "UniProtKB P14416",
    "pKi": 6.25
  },
  {
    "smiles_entry": "COc1ccc(CCCCN2CCN(Cc3cc4ccccc4o3)CC2)cc1",
    "target_under_test": "UniProtKB P14416",
    "pKi": 5.24
  },
  {
    "smiles_entry": "COc1cccc(CCCCN2CCN(Cc3cc4ccccc4o3)CC2)c1",
    "target_under_test": "UniProtKB P14416",
    "pKi": 6.32
  }
]

The compound listed as `COc1ccccc1CCCN1CCN(Cc2cc3ccccc3o2)CC1` shows pKi equal to 5.23

pKi for `COc1ccccc1CCN1CCN(Cc2cc3ccccc3o2)CC1` is 5.78

---

Parameter 'readout' = pKi; parameter 'system' = 5-hydroxytryptamine receptor 2B (Homo sapiens).
Sequence (P41595 whole entry): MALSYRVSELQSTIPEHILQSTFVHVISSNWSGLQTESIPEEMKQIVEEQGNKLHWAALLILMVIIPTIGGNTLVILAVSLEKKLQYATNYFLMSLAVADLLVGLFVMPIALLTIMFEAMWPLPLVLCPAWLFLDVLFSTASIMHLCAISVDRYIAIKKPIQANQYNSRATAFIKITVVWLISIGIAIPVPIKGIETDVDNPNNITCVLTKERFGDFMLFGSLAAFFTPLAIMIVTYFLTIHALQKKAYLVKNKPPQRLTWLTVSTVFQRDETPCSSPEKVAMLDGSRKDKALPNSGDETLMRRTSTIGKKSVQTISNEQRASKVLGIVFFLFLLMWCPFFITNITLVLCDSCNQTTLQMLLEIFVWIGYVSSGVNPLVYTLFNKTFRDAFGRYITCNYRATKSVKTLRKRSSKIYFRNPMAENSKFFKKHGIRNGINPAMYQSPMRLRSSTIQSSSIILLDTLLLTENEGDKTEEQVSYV
Here pKi is given on a logarithmic scale as minus log10 of the concentration in mol/L.

[
  {
    "smiles_entry": "c1ccc(CCCCN2CCN(Cc3cc4ccccc4o3)CC2)cc1",
    "target_under_test": "5-hydroxytryptamine receptor 2B (Homo sapiens)",
    "pKi": 6.56
  },
  {
    "smiles_entry": "c1ccc(CCCN2CCN(Cc3cc4ccccc4o3)CC2)cc1",
    "target_under_test": "5-hydroxytryptamine receptor 2B (Homo sapiens)",
    "pKi": 6.83
  },
  {
    "smiles_entry": "COc1cccc(CCN2CCN(Cc3cc4ccccc4o3)CC2)c1",
    "target_under_test": "5-hydroxytryptamine receptor 2B (Homo sapiens)",
    "pKi": 6.54
  },
  {
    "smiles_entry": "c1ccc(CCN2CCN(Cc3cc4ccccc4o3)CC2)cc1",
    "target_under_test": "5-hydroxytryptamine receptor 2B (Homo sapiens)",
    "pKi": 6.51
  },
  {
    "smiles_entry": "COc1cccc(CCCN2CCN(Cc3cc4ccccc4o3)CC2)c1",
    "target_under_test": "5-hydroxytryptamine receptor 2B (Homo sapiens)",
    "pKi": 6.61
  }
]

# pKi of `COc1ccccc1CCN1CCN(Cc2cc3ccccc3o2)CC1` = 6.92
